The values you see were collected from patent US12590099B2.

TARGET ENTITY: Recombinant human HDAC8 (Homo sapiens, UniProt Q9BY41)
Construct: purchased Enzo Life Sciences BML-SE145-0100
MEASUREMENT DESCRIPTION: Human HDAC enzyme inhibitor Fluor-de-Lys assay, HDAC8
Assay type: biochemical
CONDITION DESCRIPTION: recombinant human HDAC8, Fluor-de-Lys assay
Procedure: Human HDAC Enzyme Inhibitor Fluor-De-Lys Assay Recombinant human HDAC8 (BML-SE145-0100) and HDAC10 (BML-SE559-0050) enzymes, HDAC substrates BML-KI104 and BML-KI178, and HDAC developer solutions BML-KI105 and BML-KI176 were purchased from Enzo Life Sciences. […] The histone deacetylase activities of HDAC1, HDAC2, HDAC3, HDAC6, and HDAC8 were measured in modified FLUOR DE LYS assays in 384-well format. […] The released AMC is then detected by its fluorescence. […]
Reported IC50 by item:
Dear colleague, please return just the value in µM, with no unit written.

Worked examples, 4 molecules total:
{"MOLECULE": "CCC(=O)CCCCC[C@H](NC(=O)[C@H]1CC[C@@]2(CC1)OC(=O)c1cccnc12)c1ncc(-c2ccccc2)[nH]1 [Compound 375]", "ASSAY ENDPOINT": "IC50", "RESULT NUMBER": 8.88}
{"MOLECULE": "CCC(=O)CCCCC[C@H](NC(=O)[C@H]1CC12CCN(C)CC2)c1[nH]c(-c2ccc(F)cc2)nc1Cl [Compound 240]", "ASSAY ENDPOINT": "IC50", "RESULT NUMBER": 26.7}
{"MOLECULE": "CCC(=O)CCCCC[C@H](NC(=O)[C@H]1CC12CCN(CC)CC2)c1ncc(-c2ccc3cccnc3c2)[nH]1 [Compound 344]", "ASSAY ENDPOINT": "IC50", "RESULT NUMBER": 3.42}
{"MOLECULE": "CCC(=O)CCCCC[C@H](NC(=O)CCN1C(=O)C(CC)=NC12CCOCC2)c1ncc(-c2ccccc2)[nH]1 [Compound 384]", "ASSAY ENDPOINT": "IC50", "RESULT NUMBER": 8.93}

--- query ---
Query: Could you share which IC50 value was measured for CCC(=O)CCCCC[C@H](NC(=O)C1CC2(CCN(CC)CC2)C1)c1ncc(-c2cc3ccccc3nc2OC)[nH]1 [Compound 278] ?
Reply: 0.98

----------
List of pIC50 values.
TARGET ENTITY: Recombinant human HDAC8 (Homo sapiens, UniProt Q9BY41)
Construct: purchased Enzo Life Sciences BML-SE145-0100
Sequence (Q9BY41 1-377): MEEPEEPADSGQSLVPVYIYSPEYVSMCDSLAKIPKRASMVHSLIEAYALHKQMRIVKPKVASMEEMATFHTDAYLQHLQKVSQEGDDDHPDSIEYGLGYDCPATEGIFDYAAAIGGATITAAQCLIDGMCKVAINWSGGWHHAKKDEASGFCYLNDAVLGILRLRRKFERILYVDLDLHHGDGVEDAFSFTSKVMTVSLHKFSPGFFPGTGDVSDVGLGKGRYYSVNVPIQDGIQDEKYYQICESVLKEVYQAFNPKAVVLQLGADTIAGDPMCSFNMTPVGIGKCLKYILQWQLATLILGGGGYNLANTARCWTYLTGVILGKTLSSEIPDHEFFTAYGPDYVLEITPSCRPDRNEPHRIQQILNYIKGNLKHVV
MEASUREMENT DESCRIPTION: Human HDAC enzyme inhibitor Fluor-de-Lys assay, HDAC8
Format: biochemical
pIC50: −log10 of the molar value.

Completed entries (count: 4):
{"INPUT SMILES": "CCC(=O)CCCCC[C@H](NCCN(C)C)c1ncc(-c2cc3ccc(C)nc3cc2OC)[nH]1", "pIC50": "< 6.05"}
{"INPUT SMILES": "CCC(=O)CCCCC[C@H](NC(=O)[C@H]1CC12CCN(CC)CC2)c1ncc(-c2ccc3c(=O)n(C4CC4)ccc3c2)o1", "pIC50": "< 4.82"}
{"INPUT SMILES": "CCC(=O)CCCCC[C@H](NC(=O)[C@H]1CC12CCN(C)CC2)c1ncc(-c2cc(OC)ncc2F)o1", "pIC50": "< 6.05"}
{"INPUT SMILES": "CCN1CCC2(CC1)C[C@@H]2C(=O)N[C@@H](CCCCCC(=O)CC1CCC1)c1ncc(-c2cc3ccc(C)nc3cc2OC)o1", "pIC50": "< 4.35"}

Query: Reported pIC50, compound CCC(=O)CCCCC[C@H](NC(=O)C1=NOC2(CCN(C)CC2)C1)c1ncc(-c2cc3ccc(C)nc3cc2F)o1 : ____
Reply: < 6.05

----------
Property: IC50; scope: individual compounds
TARGET ENTITY: HDAC6 (Homo sapiens)
Sequence (Q9UBN7 whole entry): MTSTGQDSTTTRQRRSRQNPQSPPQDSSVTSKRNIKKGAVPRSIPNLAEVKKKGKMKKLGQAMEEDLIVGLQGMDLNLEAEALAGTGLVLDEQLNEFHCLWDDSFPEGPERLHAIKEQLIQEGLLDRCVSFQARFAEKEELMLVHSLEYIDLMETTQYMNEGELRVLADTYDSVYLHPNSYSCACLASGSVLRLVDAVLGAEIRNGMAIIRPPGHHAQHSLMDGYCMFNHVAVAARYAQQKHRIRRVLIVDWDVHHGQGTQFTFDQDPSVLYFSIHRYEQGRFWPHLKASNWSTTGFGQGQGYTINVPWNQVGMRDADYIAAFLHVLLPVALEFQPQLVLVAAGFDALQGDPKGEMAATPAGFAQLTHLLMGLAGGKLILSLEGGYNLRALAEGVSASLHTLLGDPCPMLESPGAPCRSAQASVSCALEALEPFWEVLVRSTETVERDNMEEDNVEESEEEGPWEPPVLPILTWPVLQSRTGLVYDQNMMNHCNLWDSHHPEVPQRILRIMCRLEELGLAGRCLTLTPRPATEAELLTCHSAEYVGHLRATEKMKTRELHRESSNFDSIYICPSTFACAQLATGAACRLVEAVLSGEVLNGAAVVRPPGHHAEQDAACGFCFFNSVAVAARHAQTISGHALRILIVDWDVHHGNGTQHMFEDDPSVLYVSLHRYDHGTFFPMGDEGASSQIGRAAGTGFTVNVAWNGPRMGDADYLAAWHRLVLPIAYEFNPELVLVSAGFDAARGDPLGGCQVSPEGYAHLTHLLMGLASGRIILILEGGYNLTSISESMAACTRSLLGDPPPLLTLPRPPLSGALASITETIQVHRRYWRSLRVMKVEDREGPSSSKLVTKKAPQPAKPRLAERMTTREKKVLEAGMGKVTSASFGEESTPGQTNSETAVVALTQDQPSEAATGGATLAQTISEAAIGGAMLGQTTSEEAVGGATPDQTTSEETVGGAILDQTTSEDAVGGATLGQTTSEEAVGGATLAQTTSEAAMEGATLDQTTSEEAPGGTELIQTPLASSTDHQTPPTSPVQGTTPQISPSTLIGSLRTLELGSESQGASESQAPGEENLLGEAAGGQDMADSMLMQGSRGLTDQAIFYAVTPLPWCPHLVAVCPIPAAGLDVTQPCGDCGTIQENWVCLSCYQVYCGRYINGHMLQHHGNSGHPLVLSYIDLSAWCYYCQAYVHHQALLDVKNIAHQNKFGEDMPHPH
MEASUREMENT DESCRIPTION: Human HDAC enzyme inhibitor Fluor-de-Lys assay, HDAC6
Assay type: biochemical
CONDITION DESCRIPTION: HDAC6, Fluor-de-Lys assay
Experimental: Human HDAC Enzyme Inhibitor Fluor-De-Lys Assay Recombinant human HDAC8 (BML-SE145-0100) and HDAC10 (BML-SE559-0050) enzymes, HDAC substrates BML-KI104 and BML-KI178, and HDAC developer solutions BML-KI105 and BML-KI176 were purchased from Enzo Life Sciences. […] The histone deacetylase activities of HDAC1, HDAC2, HDAC3, HDAC6, and HDAC8 were measured in modified FLUOR DE LYS assays in 384-well format. […] The released AMC is then detected by its fluorescence. […]

{"COMPOUND": "CCC(=O)CCCCC[C@H](NC(=O)C1=NOC2(CCN(CC)CC2)C1)c1ncc(-c2cc3ccc(=O)n(C)c3cc2OC)o1", "RESULT": "> 900 nM"}
{"COMPOUND": "CCC(=O)CCCCC[C@H](NC(=O)C1CC12CCN(CC)CC2)c1nc(-c2ccc(F)cc2)[nH]c1-c1cnc(OC)nc1 (stereo partly drawn)", "RESULT": "> 45000 nM"}
{"COMPOUND": "CCCn1cc(-c2[nH]c(-c3ccc(F)cc3)nc2C(CCCCCC(=O)CC)NC(=O)C2CC23CCN(CC)CC3)cn1 (stereo not drawn)", "RESULT": "> 45000 nM"}

Query: Fill blank: measured IC50 of the compound CCC(=O)CCCCC[C@H](NC(=O)C1=NOC2(CCN(C)CC2)C1)c1ncc(-c2ccc(-c3ccncc3)cc2OC)o1 is ____.
Reply: > 900 nM

Query: Param item: CCC(=O)CCCCC[C@H](NC(=O)C1=NOC2(CCN(C)CC2)C1)c1ncc(-c2cc3ccc(=O)n(C)c3cc2F)o1
Reply: > 900 nM

Query: Same lookup for CCC(=O)CCCCC[C@H](NC(=O)C1=NOC2(CCN(C)CC2)C1)c1ncc(-c2cc3ccc(N(C)C)nc3cc2OC)o1 , please.
Reply: > 900 nM

----------
TARGET ENTITY: Recombinant human HDAC2 (Homo sapiens, UniProt Q92769)
Construct: Full length human HDAC2-FLAG was expressed in baculovirus infected Sf9 cells; FLAG (C); made in house; host or cells: Sf9 (baculovirus)
Sequence (Q92769 whole entry): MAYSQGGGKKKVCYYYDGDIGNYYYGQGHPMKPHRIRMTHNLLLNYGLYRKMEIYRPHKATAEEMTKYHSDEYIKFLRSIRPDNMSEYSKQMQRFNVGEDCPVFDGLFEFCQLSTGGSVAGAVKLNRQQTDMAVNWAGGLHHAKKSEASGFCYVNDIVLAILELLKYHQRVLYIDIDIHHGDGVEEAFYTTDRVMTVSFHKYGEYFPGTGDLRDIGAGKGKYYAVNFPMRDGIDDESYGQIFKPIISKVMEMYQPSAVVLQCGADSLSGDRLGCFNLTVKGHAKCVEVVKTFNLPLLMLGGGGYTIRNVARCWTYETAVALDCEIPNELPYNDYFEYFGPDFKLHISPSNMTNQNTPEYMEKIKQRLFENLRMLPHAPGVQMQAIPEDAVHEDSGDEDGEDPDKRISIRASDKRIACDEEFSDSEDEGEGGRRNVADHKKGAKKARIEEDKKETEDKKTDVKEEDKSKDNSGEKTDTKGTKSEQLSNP
MEASUREMENT DESCRIPTION: Human HDAC enzyme inhibitor Fluor-de-Lys assay, HDAC2
Format: biochemical
IC50 less than 50 nM is 1.0; IC50 greater than or equal to 50 nM is 0.0.

Below are worked cases with known answers.
{"INPUT SMILES": "CCC(=O)CCCCC[C@H](N)c1ncc(-c2ccc3nc(C)ccc3c2)[nH]1", "CAT": 0.0}
{"INPUT SMILES": "CCC(=O)CCCCC[C@H](NC(=O)[C@H]1CC12CCN(CC)CC2)c1ncc(-c2ccc(-n3cccn3)cc2)o1", "CAT": 1.0}
{"INPUT SMILES": "CCC(=O)CCCCC[C@H](N)c1ncc(-c2cc3ccc(C)nc3cc2OC)[nH]1", "CAT": 0.0}

For the next question, use this compound.
Query: Dear colleague, could you confirm whether IC50 of CCC(=O)CCCCC[C@H](NC(=O)[C@H]1CC12CCN(CC)CC2)c1ncc(-c2cc3nn(C)cc3cc2OC)o1 falls below 50 nM? Thanks.
Reply: 1.0

----------
Each item that follows carries a reported pIC50.
TARGET ENTITY: HDAC6 (Homo sapiens)
MEASUREMENT DESCRIPTION: Human HDAC enzyme inhibitor Fluor-de-Lys assay, HDAC6
Assay type: biochemical
CONDITION DESCRIPTION: HDAC6, Fluor-de-Lys assay
On this scale, pIC50 is minus log10 of a concentration expressed in M (mol/L).

Query: Consider the compound CCC(=O)CCCCC[C@H](NC(=O)[C@H]1CC12CCN(CC)CC2)c1ncc(-c2cc3ccn(CC)c(=O)c3cc2OC)[nH]1 [Compound 245] and give its measured pIC50.
Reply: 6.16
